- target-entity: T1, hIL2Rg-Fc (SinoBiological cat#10555) (human, UniProt P31785 23-254, limits assumed)
- T1 construct: Bought Fc fusion (SinoBiological cat#10555); P31785 is printed for hCD132 in the background; also called human IL2Rg-Fc; not shown: Fc of the bought fusion protein
- T1 sequence (looked up): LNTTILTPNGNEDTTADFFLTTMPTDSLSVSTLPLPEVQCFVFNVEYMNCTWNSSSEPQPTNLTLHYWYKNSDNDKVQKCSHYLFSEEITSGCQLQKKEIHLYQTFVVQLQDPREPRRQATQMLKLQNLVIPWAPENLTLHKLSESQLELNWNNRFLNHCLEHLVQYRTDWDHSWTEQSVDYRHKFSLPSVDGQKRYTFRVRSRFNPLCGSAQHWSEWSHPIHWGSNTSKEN
- measurement-notes: SPR (Biacore T200), Fc-fused ligand captured on chip, dual VHH as analyte, 1:1 Langmuir fit
outcome-measure: koff (s⁻¹)
Numbers only here, please. The scale is s⁻¹.

Recorded koff, per entry:
binder	outcome-measure	measured-result
DR466(DR240-DR232) (bispecific antibody, Anti-hIL10Ra/hIL2Rg dual VHH with ASH6 handle; also called H7) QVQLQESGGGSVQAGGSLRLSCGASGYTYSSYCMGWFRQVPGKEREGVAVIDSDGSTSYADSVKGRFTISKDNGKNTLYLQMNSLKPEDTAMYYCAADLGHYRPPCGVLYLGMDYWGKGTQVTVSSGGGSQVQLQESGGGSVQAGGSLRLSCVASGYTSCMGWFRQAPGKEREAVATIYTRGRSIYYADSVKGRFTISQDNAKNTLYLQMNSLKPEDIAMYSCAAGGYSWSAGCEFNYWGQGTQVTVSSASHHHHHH	koff	0.026
DR444(DR236-DR234) (bispecific antibody, Anti-hIL10Ra/hIL2Rg dual VHH with ASH6 handle; also called E8) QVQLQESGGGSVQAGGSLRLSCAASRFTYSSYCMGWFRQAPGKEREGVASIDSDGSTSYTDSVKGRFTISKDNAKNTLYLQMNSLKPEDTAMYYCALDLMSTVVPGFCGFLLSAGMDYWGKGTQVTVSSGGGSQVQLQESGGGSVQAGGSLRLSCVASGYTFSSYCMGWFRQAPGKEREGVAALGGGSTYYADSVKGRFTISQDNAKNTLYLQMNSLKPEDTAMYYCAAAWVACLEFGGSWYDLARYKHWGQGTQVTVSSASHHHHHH	koff	0.0026
DR471(DR241-DR231) (bispecific antibody, Anti-hIL10Ra/hIL2Rg dual VHH with ASH6 handle; also called G3) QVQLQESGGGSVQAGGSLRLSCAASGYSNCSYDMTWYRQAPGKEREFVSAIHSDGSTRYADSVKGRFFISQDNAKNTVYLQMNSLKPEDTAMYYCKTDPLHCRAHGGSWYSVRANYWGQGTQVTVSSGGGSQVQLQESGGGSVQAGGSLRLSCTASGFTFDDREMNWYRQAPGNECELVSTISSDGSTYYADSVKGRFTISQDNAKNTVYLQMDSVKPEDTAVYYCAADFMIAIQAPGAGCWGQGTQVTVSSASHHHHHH	koff	0.0057
DR392(DR229-DR236) (bispecific antibody, Anti-hIL10Ra/hIL2Rg dual VHH with ASH6 handle; also called A7) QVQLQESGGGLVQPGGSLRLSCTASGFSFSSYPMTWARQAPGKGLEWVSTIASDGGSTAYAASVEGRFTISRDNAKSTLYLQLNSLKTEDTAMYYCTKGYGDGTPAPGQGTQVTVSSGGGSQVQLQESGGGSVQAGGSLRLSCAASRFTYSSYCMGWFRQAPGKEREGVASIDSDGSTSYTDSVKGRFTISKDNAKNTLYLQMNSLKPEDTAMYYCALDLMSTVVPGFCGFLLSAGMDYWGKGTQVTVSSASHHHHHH	koff	0.0062

# input for lookup
Given the entry DR438(DR235-DR234) (bispecific antibody, Anti-hIL10Ra/hIL2Rg dual VHH with ASH6 handle; also called D12) QVQLQESGGGSVQAGGSLRLSCAASRYLYSIDYMAWFRQSPGKEREPVAVIYTASGATFYPDSVKGRFTISQDNAKMTVYLQMNSLKSEDTAMYYCAAVRKTDSYLFDAQSFTYWGQGTQVTVSSGGGSQVQLQESGGGSVQAGGSLRLSCVASGYTFSSYCMGWFRQAPGKEREGVAALGGGSTYYADSVKGRFTISQDNAKNTLYLQMNSLKPEDTAMYYCAAAWVACLEFGGSWYDLARYKHWGQGTQVTVSSASHHHHHH , report its measured koff.
0.001
